Molecular target: T1, EsCas13d, nuclease-dead (Eubacterium siraeum, UniProt B0MS50, R295A;H300A;R849A;H854A)
T1 sequence: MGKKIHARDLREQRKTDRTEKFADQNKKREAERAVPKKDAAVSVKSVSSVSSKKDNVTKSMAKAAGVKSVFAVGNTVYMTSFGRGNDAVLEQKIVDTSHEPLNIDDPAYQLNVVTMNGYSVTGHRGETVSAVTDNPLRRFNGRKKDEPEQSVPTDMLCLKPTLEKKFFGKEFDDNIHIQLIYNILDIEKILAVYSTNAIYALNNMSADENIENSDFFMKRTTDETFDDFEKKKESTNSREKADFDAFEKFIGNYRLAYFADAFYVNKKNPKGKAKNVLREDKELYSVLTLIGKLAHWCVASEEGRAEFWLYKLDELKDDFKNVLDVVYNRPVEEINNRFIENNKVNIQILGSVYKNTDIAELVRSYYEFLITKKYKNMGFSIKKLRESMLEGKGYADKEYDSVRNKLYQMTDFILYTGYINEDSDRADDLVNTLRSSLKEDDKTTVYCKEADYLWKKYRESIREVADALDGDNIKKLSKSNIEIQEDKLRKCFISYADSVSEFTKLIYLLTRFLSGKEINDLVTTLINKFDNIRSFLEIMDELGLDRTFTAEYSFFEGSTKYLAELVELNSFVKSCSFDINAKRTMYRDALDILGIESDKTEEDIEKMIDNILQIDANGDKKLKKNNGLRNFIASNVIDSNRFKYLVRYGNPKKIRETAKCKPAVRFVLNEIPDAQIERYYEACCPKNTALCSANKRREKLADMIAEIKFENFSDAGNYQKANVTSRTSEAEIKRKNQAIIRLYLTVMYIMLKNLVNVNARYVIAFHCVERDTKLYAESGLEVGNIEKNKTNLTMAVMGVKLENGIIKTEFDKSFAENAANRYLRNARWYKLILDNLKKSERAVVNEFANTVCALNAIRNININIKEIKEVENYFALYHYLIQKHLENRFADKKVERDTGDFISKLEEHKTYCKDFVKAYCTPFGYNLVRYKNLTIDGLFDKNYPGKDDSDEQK
Experiment: crRNA (strand 1, pre-loaded); Mg2+; 40 mM Tris-HCl pH 7.5, 150 mM NaCl, 6 mM MgCl2, 1 mM DTT, 0.1% Tween-20, 0.2 mg/ml BSA; 25 C; 10 min per concentration, then washed
Conditions: tags: His6-TwinStrep-SUMO cleaved; N-terminal SNAP kept (SNAP-Surface 488); label: 3' end held by stalled T7 RNA polymerase
We begin with a simple list: items and their reported pKd.
Remember the convention: pKd equals -log10 of concentration in molar.

Known results for binders:
>>> value("target 1 insU 3' of 12,insG 3' of 7 (mixed) RNA 1: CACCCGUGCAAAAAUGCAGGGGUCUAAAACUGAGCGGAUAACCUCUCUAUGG RNA 2: GGGAAUGGAUCCACAUCUACGAAUUCGUACCAUAGAGAGGUUUAUCGCGCUCACCGAGAUCGGAAGAGCACACGU")
8.17
>>> value("target 3 C1U,U7A (mixed) RNA 1: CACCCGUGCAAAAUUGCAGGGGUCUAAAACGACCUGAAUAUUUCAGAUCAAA RNA 2: GGGAAUGGAUCCACAUCUACGAAUUCGUUUUUGAUCUGAAAUAUACAGGUUUGCAGAUCGGAAGAGCACACGU")
7.44

Field pKd (entry target 1 insC 3' of 8,insU 3' of 5 (mixed) RNA 1: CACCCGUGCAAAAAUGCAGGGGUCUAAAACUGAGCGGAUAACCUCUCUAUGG RNA 2: GGGAAUGGAUCCACAUCUACGAAUUCGUACCAUAGAGAGGUUAUCCCGUCUCACCGAGAUCGGAAGAGCACACGU ) reads 7.79

Field pKd (entry target 2 MT 5'PFS UAA 3'PFS UAA (mixed) RNA 1: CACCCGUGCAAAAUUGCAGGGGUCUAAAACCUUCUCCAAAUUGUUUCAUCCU RNA 2: GGGAAUGGAUCCACAUCUACGAAUUCUAAAGGAUGAAACAAUUUGGAGAAGUAAAGAUCGGAAGAGCACACGU ) reads 8.32

Field pKd (entry target 3 insG 3' of 22,insU 3' of 3 (mixed) RNA 1: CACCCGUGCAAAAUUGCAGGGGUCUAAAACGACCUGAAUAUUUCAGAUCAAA RNA 2: GGGAAUGGAUCCACAUCUACGAAUUCGUUUGUUGAUCUGAAAUAUUCAGGUUCUGCAGAUCGGAAGAGCACACGU ) reads 7.17
